Source: patent US20100035756A1

Give herbicidal damage, DIGSA for every item shown.
- Tested on: Monocotyledonous and dicotyledonous test plants
- experiment: Herbicidal action prior to emergence of the plants (pre-emergence action), Example B1
- Format: in vivo
- conditions.used: preemergence application, 250 g/ha, DIGSA, evaluated after 4 weeks; 100%=total damage, 0%=no damage
- Protocol: Monocotyledonous and dicotyledonous test plants are sown in seed trays in standard soil. […] After a 4-week test period, the test is evaluated (100%=total damage to plant; 0%=no damage to plant; NC not evaluated).
Only the number, expressed in %, is required.

Exercise: I would be grateful if you could share the reported herbicidal damage, DIGSA for Cc1nnc2c(C(=O)C3C(=O)C4CCC(C4)C3=O)ccc(C(F)(F)F)n12 (centres unmarked) .
Solution: 100

Exercise: And Cc1nnc2c(C(=O)C3=C(O)CC(C)CC3=O)ccc(C(F)(F)F)n12 (centres unmarked) ?
Solution: 100

Exercise: Subsequent entry: CCOc1nnc2c(C(=O)C3=C(O)C4CCC(C4)C3=O)ccc(C(F)(F)F)n12 (centres unmarked)
Solution: 70

Exercise: And then COCc1nnc2c(C(=O)C3=C(O)C(C)(C)C(=O)C(C)(C)C3=O)ccc(C(F)(F)F)n12 , what is it?
Solution: 10

Exercise: Follow-up item: CCSc1nnc2c(C(=O)C3=C(O)C4CCC(C4)C3=O)ccc(C(F)(F)F)n12 (centres unmarked)
Solution: 70

Exercise: Same question for O=C(C1=C(O)C2CCC(C2)C1=O)c1ccc(C(F)(F)F)n2c(C3CC3)nnc12 (centres unmarked) please.
Solution: 100

Exercise: What do you have for O=C(C1=C(O)C2CCC(C2)C1=O)c1ccc(C(F)(F)F)n2nc(-c3ccc(Cl)cc3)nc12 (centres unmarked) ?
Solution: 20

Exercise: Queued: Cc1nc2c(C(=O)C3=C(O)C(C)(C)C(=O)C(C)(C)C3=O)ccc(C(F)(F)F)n2n1
Solution: 80

Exercise: Further, for CCCC1CCC(=O)C(C(=O)c2ccc(C(F)(F)F)n3c(C)nnc23)=C1O (centres unmarked) ?
Solution: 90

Exercise: Next up: CC1(C)C(=O)C(C(=O)c2ccc(C(F)(F)F)n3c(-c4ccc(Cl)cc4)nnc23)=C(O)C(C)(C)C1=O
Solution: 40

Exercise: Another compound to check: O=C(C1=C(O)C2CCC(C2)C1=O)c1ccc(C(F)(F)F)n2nc(Cl)nc12 (centres unmarked)
Solution: 50

Exercise: Also O=C(C1=C(O)C2CCC(C2)C1=O)c1ccc(C(F)(F)F)n2cnnc12 (centres unmarked) , if possible.
Solution: 70

Exercise: Here is the next compound: O=C1CCCC(O)=C1C(=O)c1ccc(C(F)(F)F)n2c(-c3cccnc3)nnc12
Solution: 30

Exercise: Similarly, CC(C)c1nnc2c(C(=O)C3=C(O)C(C)(C)C(=O)C(C)(C)C3=O)ccc(C(F)(F)F)n12 ?
Solution: 60

Exercise: Also, Cc1nnc2c(C(=O)C3=C(O)C4CCC(C4)C3=O)ccc(C(F)F)n12 (centres unmarked) please.
Solution: 0

Exercise: Field entry: Cc1nnc2c(C(=O)C3=C(O)C(C)(C)C(=O)C(C)(C)C3=O)ccc(C(F)(F)F)n12
Solution: 100

Exercise: What do we get for O=C1CCCC(O)=C1C(=O)c1ccc(C(F)(F)F)n2c(C3CC3)nnc12 ?
Solution: 30

Exercise: Param item: CC(C)c1nc2c(C(=O)C3=C(O)C4CCC(C4)C3=O)ccc(C(F)(F)F)n2n1 (centres unmarked)
Solution: 0

Exercise: Another compound to look at: Cc1nnc2c(C(=O)C3=C(O)CCCC3=O)ccc(C(F)(F)F)n12
Solution: 70

Exercise: Okay, and CCOc1nc2c(C(=O)C3=C(O)C4CCC(C4)C3=O)ccc(C(F)(F)F)n2n1 (centres unmarked) ?
Solution: 80

Exercise: Subsequent entry: O=C1CCCC(O)=C1C(=O)c1ccc(C(F)(F)F)n2c(Br)nnc12
Solution: 0

Exercise: // same read-out, input: CC1(C)C(=O)C(C(=O)c2ccc(C(F)(F)F)n3cnnc23)=C(O)C(C)(C)C1=O
Solution: 100

Exercise: Cc1nc2c(C(=O)C3=C(O)CCCC3=O)ccc(C(F)(F)F)n2n1 , same question.
Solution: 30
